Provide the recorded activity at 15 min, 50 µM for the entries that follow.
Target: UGT1A3 (Homo sapiens, UniProt P35503)
Sequence (P35503 29-534): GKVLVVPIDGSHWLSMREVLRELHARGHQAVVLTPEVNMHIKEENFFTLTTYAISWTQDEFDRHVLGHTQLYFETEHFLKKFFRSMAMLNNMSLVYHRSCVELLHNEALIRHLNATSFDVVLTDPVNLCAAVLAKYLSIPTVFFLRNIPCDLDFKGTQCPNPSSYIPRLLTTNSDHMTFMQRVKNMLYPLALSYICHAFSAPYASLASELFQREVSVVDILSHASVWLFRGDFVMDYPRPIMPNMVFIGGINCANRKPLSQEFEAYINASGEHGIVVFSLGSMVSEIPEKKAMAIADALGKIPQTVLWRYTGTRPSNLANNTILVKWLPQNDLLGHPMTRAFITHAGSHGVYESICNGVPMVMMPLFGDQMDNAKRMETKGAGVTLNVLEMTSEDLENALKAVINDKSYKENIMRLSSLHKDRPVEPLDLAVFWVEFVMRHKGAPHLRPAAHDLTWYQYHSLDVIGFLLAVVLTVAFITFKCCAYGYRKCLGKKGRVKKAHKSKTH
Assay: Inhibition of raloxifene glucuronidation by recombinant UGT1A3 Supersomes
Settings: human, Supersomes with recombinant human UGT1A3, pH 7.5, probe raloxifene 50 μM, formation of glucuronide G1, % of control metabolism, raloxifene G1, UGT1A3; inhibitor 50 μM

Record CC/C(=C(/CC)c1ccc(O)cc1)c1ccc(O)cc1 [Diethylstilbestrol, reference compound] : what is its activity at 15 min, 50 µM with UGT1A3 (Homo sapiens, UniProt P35503)? 14%

Follow-up item: O=C(O[C@@H]1Cc2c(O)cc(O)cc2O[C@H]1c1cc(O)c(O)c(O)c1)c1cc(O)c(O)c(O)c1 [Gallocatechin gallate] 39%

Same question for CCCCCCCCOC(=O)c1cc(O)c(O)c(O)c1 [Octyl gallate] please. 12%
